Tested on: methicillinsusceptible S. aureus strain ATCC 13709
Test method notes: Challenge strain MIC
Assay type: cell-based
Condition notes: Staphylococcus aureus, ATCC13709, S. aureus ATCC 13709; read-out: Challenge str MIC
Structures can show the parent of a compound that is named as a salt.
Mark Condition met for MIC under 0.1 µg/mL, Condition not met if at or over.

Answered examples (5):
O=C(CC1CC1)N[C@@H]1C(=O)N2C(C(=O)O)=C(Sc3ccnn3-c3ccccc3)CS[C@H]12 | Condition not met
Cc1nnc(SCC(=O)N[C@@H]2C(=O)N3C(C(=O)O)=C(Sc4ccnn4-c4ccccc4)CS[C@H]23)s1 | Condition met
O=C(CS/C=C\Cl)N[C@@H]1C(=O)N2C(C(=O)O)=C(Sc3ccnn3-c3ccccc3)CS[C@H]12 | Condition met
N=C(N)SCc1ccccc1SC1=C(C(=O)O)N2C(=O)[C@@H](NC(=O)Cc3ccccc3CN)[C@H]2SC1 [Cmpd 101, trifluoroacetic acid salt] | Condition not met
CCC(CC)O/N=C(\C(=O)N[C@@H]1C(=O)N2C(C(=O)O)=C(Sc3ccnn3-c3ccccc3)CS[C@H]12)c1csc(N)n1 | Condition not met

Report whether reported MIC is lower than 0.1 µg/mL (strictly) for O=C(O)C1=C(Sc2ccnn2-c2ccccc2)CS[C@@H]2[C@H](NC(=O)/C(=N\O)c3ccccc3)C(=O)N12
Condition not met

====

Tested on: methicillinsusceptible S. aureus strain ATCC 13709
Test method notes: Challenge strain MIC
Type: cell-based
Condition notes: Staphylococcus aureus, ATCC13709, S. aureus ATCC 13709; read-out: Challenge str MIC
Property: MIC; scope: individual molecules
Write the number in µg/mL without appending the unit.

Worked cases, MIC given:
O=C(Cc1ccccc1)N[C@@H]1C(=O)N2C(C(=O)O)=C(Sc3ccnn3-c3ccccc3)CS[C@H]12 | 0.06
Nc1nc(/C(=N/OCC2CC2)C(=O)N[C@@H]2C(=O)N3C(C(=O)O)=C(Sc4ccnn4-c4ccccc4)CS[C@H]23)cs1 | 0.5
N#CCC(=O)N[C@@H]1C(=O)N2C(C(=O)O)=C(Sc3ccccc3I)CS[C@H]12 | 0.125
O=C(O)C1=C(Sc2ccnn2-c2ccccc2)CS[C@@H]2[C@H](NC(=O)C3SCCS3)C(=O)N12 | 0.25
O=C(Cc1ccccc1)N[C@@H]1C(=O)N2C(C(=O)O)=C(Sc3cccnc3-c3ccccc3)CS[C@H]12 | 0.125

What measured MIC is associated with CO/N=C(\C(=O)N[C@@H]1C(=O)N2C(C(=O)O)=C(COC(C)=O)CS[C@H]12)c1csc(N)n1 [Cefotaxime, reference compound] on methicillinsusceptible S. aureus strain ATCC 13709?
2

What measured MIC is associated with O=C(CSc1ccncc1)N[C@@H]1C(=O)N2C(C(=O)O)=C(Sc3ccnn3-c3ccccc3)CS[C@H]12 on methicillinsusceptible S. aureus strain ATCC 13709?
0.25

====

System: P. aeruginosa ATCC 27853
Test method notes: In vitro antibacterial evaluation, MIC by agar dilution, P. aeruginosa ATCC 27853
Type: cell-based
Condition notes: Pseudomonas aeruginosa, ATCC27853, read-out: MIC
Property: MIC; scope: individual molecules

O=C(CSc1ccccc1)N[C@@H]1C(=O)N2C(C(=O)O)=C(Sc3ccnn3-c3ccccc3)CS[C@H]12 | > 32 µg/mL
O=C(Cc1ccccc1)N[C@@H]1C(=O)N2C(C(=O)O)=C(Sc3ccc(-c4ccccc4)cc3)CS[C@H]12 | > 32 µg/mL
O=C(Cc1ccccc1)N[C@@H]1C(=O)N2C(C(=O)O)=C(Sc3cccnc3-n3cccn3)CS[C@H]12 | > 32 µg/mL
COc1cccc(-n2nccc2SC2=C(C(=O)O)N3C(=O)[C@@H](NC(=O)Cc4ccccc4)[C@H]3SC2)c1 | > 32 µg/mL
C[n+]1cccc(SC2=C(C(=O)[O-])N3C(=O)[C@@H](NC(=O)Cc4ccccc4)[C@H]3SC2)c1-c1ccccc1 | > 32 µg/mL

Consider the molecule O=C(Cc1ccccc1)N[C@@H]1C(=O)N2C(C(=O)O)=C(Sc3ccnn3-c3ccccn3)CS[C@H]12 and give its measured MIC.
> 32 µg/mL

Consider the molecule O=C(Cc1ccccc1)N[C@@H]1C(=O)N2C(C(=O)O)=C(Sc3ccccc3CSc3ccncc3)CS[C@H]12 and give its measured MIC.
> 32 µg/mL

All values here come from patent US5607926A.
